Tested on: Human immunodeficiency virus type 1
run_description: Selectivity index is the ratio of CC50 to EC50
condition_description: Human immunodeficiency virus 1
recorded_metric: Ratio

molecule: CCC(C)Sc1nc(O)c(C)c(COc2ccccc2)n1 (stereo unspecified)
result_modifier: =
measured_value: 7

molecule: CCC(C)Sc1nc(O)cc(CSc2ccccc2)n1 (stereo unspecified)
result_modifier: =
measured_value: 5.4

molecule: CCC(C)Sc1nc(O)cc(Cc2ccc3ccccc3c2)n1 (stereo unspecified)
result_modifier: =
measured_value: 14

molecule: Cc1c(O)nc(SC2CCCCC2)nc1CSc1ccccc1
result_modifier: >
measured_value: 2

molecule: Oc1cc(CSc2ccccc2)nc(SC2CCCC2)n1
result_modifier: =
measured_value: 4.5

molecule: Cc1c(O)nc(SC2CCCC2)nc1COc1ccccc1
result_modifier: >
measured_value: 13

molecule: Oc1cc(CCc2ccccc2)nc(SC2CCCC2)n1
result_modifier: =
measured_value: 1.4

molecule: Cc1c(O)nc(SC2CCCC2)nc1CCc1ccccc1
result_modifier: >
measured_value: 16

molecule: CCC(C)Sc1nc(O)cc(COc2ccccc2)n1 (stereo unspecified)
result_modifier: >
measured_value: 6

molecule: CCCC(C)Sc1nc(O)cc(Cc2cccc3ccccc23)n1 (stereo unspecified)
result_modifier: =
measured_value: 34

molecule: CCC(C)Sc1nc(O)c(C)c(Cc2cccc(C)c2)n1 (stereo unspecified)
result_modifier: =
measured_value: 100

molecule: Cc1c(O)nc(SC2CCCCC2)nc1COc1ccccc1
result_modifier: >
measured_value: 14

molecule: Oc1cc(Cc2cccc3ccccc23)nc(SC2CCCCCC2)n1
result_modifier: >
measured_value: 100

molecule: CCC(C)Sc1nc(O)cc(CCc2ccccc2)n1 (stereo unspecified)
result_modifier: =
measured_value: 1.4

molecule: CCC(C)Sc1nc(O)c(C)c(Cc2ccc3ccccc3c2)n1 (stereo unspecified)
result_modifier: =
measured_value: 47

molecule: Oc1cc(Cc2cccc3ccccc23)nc(SCc2ccccc2)n1
result_modifier: >
measured_value: 24

molecule: Oc1cc(Cc2cccc3ccccc23)nc(SC2CCCCC2)n1
result_modifier: >
measured_value: 96

molecule: CCC(C)Sc1nc(O)cc(Cc2cccc3ccccc23)n1 (stereo unspecified)
result_modifier: >
measured_value: 909

molecule: Cc1cccc(Cc2nc(SC3CCCCC3)nc(S)c2C)c1
result_modifier: =
measured_value: 12

molecule: Oc1cc(Cc2ccc3ccccc3c2)nc(SC2CCCCC2)n1
result_modifier: >
measured_value: 128

molecule: CCC(CC)Sc1nc(O)cc(Cc2cccc3ccccc23)n1
result_modifier: =
measured_value: 50

molecule: Cc1c(O)nc(SC2CCCC2)nc1Cc1cccc2ccccc12
result_modifier: >
measured_value: 50

molecule: Oc1cc(COc2ccccc2)nc(SC2CCCC2)n1
result_modifier: >
measured_value: 2

molecule: Oc1cc(Cc2cccc3ccccc23)nc(SC2CCCC2)n1
result_modifier: >
measured_value: 150

molecule: Cc1c(O)nc(SC2CCCC2)nc1Cc1ccc2ccccc2c1
result_modifier: >
measured_value: 20

molecule: Cc1cccc(Cc2nc(SC3CCCC3)nc(O)c2C)c1
result_modifier: >
measured_value: 500
